# test_details: PK study in CD-1 male mice with IV and PO dosing (Example 3)
# Format: in vivo
# stated_conditions: male, CD-1, mouse, in vivo, iv, 1.5 mg/kg, total systemic exposure (AUCinf)
parameter_measured: AUC(0-inf)
Report as: number unit

Reported AUC(0-inf), molecule Cc1cc(Nc2cc(N)ncn2)c(=O)n2c1C(=O)NC21CCC2(CC2)CC1 [4ET-03-053] : ____
1.32 µg·h/mL

* * *

# test_details: PK study in male Sprague Dawley rats, IV 1 mg/kg and PO 10 mg/kg (Example 4)
# Assay type: in vivo
# stated_conditions: male, Sprague-Dawley, rat, plasma, po, 10 mg/kg, SD rats, single PO 10 mg/kg, 10% DMA/PG; individual animals; read-out: Clast
parameter_measured: concentration at 24 h

Recorded concentration at 24 h of `Cc1cc(Nc2cc(N)ncn2)c(=O)n2c1C(=O)NC21CCC2(CC2)CC1` , please.
2210 ng/mL

* * *

# test_details: PK study in male Sprague-Dawley rats dosed once per day for five days, PO 25 mg/kg, 0.5% HPMC (Example 8)
# Format: in vivo
# stated_conditions: male, Sprague-Dawley, rat, in vivo, po, 25 mg/kg, day five of daily PO 25 mg/kg, 0.5% HPMC suspension, individual animals, read-out: Cmax
parameter_measured: Cmax (ng/mL)
Hi! Could you send only the number? It should be in ng/mL, unit omitted.

Request the reported Cmax associated with `Cc1cc(Nc2cc(N)ncn2)c(=O)n2c1C(=O)NC21CCC2(CC2)CC1`
29600

* * *

# test_details: Plasma and brain concentrations, brain to plasma ratio 24 hr after last of five 25 mg/kg PO doses (Example 8)
# Assay type: in vivo
# stated_conditions: Sprague-Dawley, rat, brain, oral, 25 mg/kg, rats, brain, 24 hr after the last of five 25 mg/kg PO doses; read-out: Mean Tissue
parameter_measured: concentration at 24 hr

What value of concentration at 24 hr has been recorded for this entry: `Cc1cc(Nc2cc(N)ncn2)c(=O)n2c1C(=O)NC21CCC2(CC2)CC1`
489 ng/g

* * *

pIC50 values for the compounds below.
# System: eIF4E phosphorylation at Serine 209 in HEK 293 cells
# test_details: eIF4E phosphorylation in HEK 293 cells (phospho-specific antibody, fluorescent plate reader);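 note: Well-level p-eIF4E immunofluorescence normalized to DAPI signal, expressed as percent eIF4E phosphorylation, with IC50 derived from concentration-response curves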
# Assay type: cell-based
# stated_conditions: Homo sapiens, HEK293; eIF4E phosphorylation at Serine 209, 2 hours exposure; read-out: HEK 293 cell
On this scale, pIC50 is minus log10 of a concentration expressed in M (mol/L).

Here are 2 compounds together with their reported answers.
CCOC(=O)C1CC12CCC1(CC2)NC(=O)c2c(C)cc(Nc3cc(NC(=O)C4CC4)ncn3)c(=O)n21 (stereo not shown)
7.75
Cc1cc(Nc2cc(NC(=O)C3(CN)CC3)ncn2)c(=O)n2c1C(=O)NC21CCC2(CC2)CC1
7.36

GET /values?readout=pIC50&system=eIF4E phosphorylation at Serine 209 in HEK 293 cells&item= `Cc1cc(Nc2cc(NC(=O)[C@H]3[C@@H]4CN(C)C[C@@H]43)ncn2)c(=O)n2c1C(=O)NC21CCC2(CC2)CC1`
8.28

# value lookup — system eIF4E phosphorylation at Serine 209 in HEK 293 cells, readout pIC50, item Cc1cc(Nc2cc(N)ncn2)c(=O)n2c1C(=O)NC21CCC2(CC1)CN2 (stereo not shown)
7.24

API: value(readout=pIC50, system=eIF4E phosphorylation at Serine 209 in HEK 293 cells) for record Cc1cc(Nc2cc(N)ncn2)c(=O)n2c1C(=O)NC21CCCC2(CC2)CC1 (racemic)
7.90

Query pIC50 on eIF4E phosphorylation at Serine 209 in HEK 293 cells for Cc1cc(Nc2cc(N)ncn2)c(=O)n2c1C(=O)NC21CCC2(CCCC2)C1 (stereo not shown)
8.05

Quick check: pIC50 on eIF4E phosphorylation at Serine 209 in HEK 293 cells, item Cc1cc(Nc2cc(NC(=O)C3CC3)ncn2)c(=O)n2c1C(=O)NC21CCC2(CC1)CN2 (stereo not shown) ?
7.56

API: value(readout= pIC50, system= eIF4E phosphorylation at Serine 209 in HEK 293 cells, query= `Cc1cc(Nc2cc(NC(=O)C3CC3)ncn2)c(=O)n2c1C(=O)NC21CCC2(CC1)CN(C(=O)OC(C)(C)C)C2` )
8.21
